system: HT29 colon; assay: NCI tumour cell line growth inhibition, 48 h
// values below are reported GI50
assay.endpoint: GI50

                                   molecule  assay_endpoint  observed
0  COc1ccc(C(=O)/C=C/c2ccc(Cl)c(Cl)c2)cc1S(N)(=O)=O            GI50   1.46 µM
1  O=C(c1ccc(Cl)cc1)C1[C@H](c2ccccc2Br)[C@@H](c2ccccc2)NC12C(=O)Nc1ccc(Cl)cc12 (some centres undefined)            GI50   9.35 µM
2  CN(C)c1nc(NCCNS(=O)(=O)c2ccc(C(=O)/C=C/c3ccccc3)cc2)nc(Nc2ccc(F)cc2)n1            GI50   3.08 µM
3  O=C(N=Nc1c(O)[nH]c2ccc(Br)cc12)c1ccc2nc(-c3ccc(Cl)cc3)[nH]c2c1            GI50   15.2 µM
